System: Human immunodeficiency virus 1
Assay: Antiviral activity against Human immunodeficiency virus 1 infected human H9 cells assessed as inhibition of viral replication
Assay type: functional, organism-based
Details: Human immunodeficiency virus 1, H9; read-out: pEC50 (converted)
Could you please report measured EC50 for the items listed next?

q: EC50 lookup needed for C=C(C)[C@@H]1CC[C@]2(COC(=O)CC(C)(C)CC(=O)O)CC[C@]3(C)[C@H](CC[C@@H]4[C@@]5(C)CCC(=O)C(C)(C)[C@@H]5CC[C@]43C)[C@@H]12 , thanks.
a: 10 µM

q: EC50 lookup needed for CC(C)[C@@H]1CC[C@]2(C(=O)O)CC[C@]3(C)[C@H](CC[C@@H]4[C@@]5(C)CC[C@H](OC(=O)CC(C)(C)CC(=O)O)C(C)(C)[C@@H]5CC[C@]43C)[C@@H]12 , thanks.
a: 0.0057 µM

q: EC50 lookup needed for CC(C)[C@@H]1CC[C@]2(C(=O)OC(=O)N3CCOCC3)CC[C@]3(C)[C@H](CC[C@@H]4[C@@]5(C)CC[C@H](O)C(C)(C)[C@@H]5CC[C@]43C)[C@@H]12 , thanks.
a: 26 µM
